Here the recorded IC50 is given for each entry.
Biological target: Epidermal growth factor receptor (Homo sapiens, UniProt P00533)
Sequence (P00533 whole entry): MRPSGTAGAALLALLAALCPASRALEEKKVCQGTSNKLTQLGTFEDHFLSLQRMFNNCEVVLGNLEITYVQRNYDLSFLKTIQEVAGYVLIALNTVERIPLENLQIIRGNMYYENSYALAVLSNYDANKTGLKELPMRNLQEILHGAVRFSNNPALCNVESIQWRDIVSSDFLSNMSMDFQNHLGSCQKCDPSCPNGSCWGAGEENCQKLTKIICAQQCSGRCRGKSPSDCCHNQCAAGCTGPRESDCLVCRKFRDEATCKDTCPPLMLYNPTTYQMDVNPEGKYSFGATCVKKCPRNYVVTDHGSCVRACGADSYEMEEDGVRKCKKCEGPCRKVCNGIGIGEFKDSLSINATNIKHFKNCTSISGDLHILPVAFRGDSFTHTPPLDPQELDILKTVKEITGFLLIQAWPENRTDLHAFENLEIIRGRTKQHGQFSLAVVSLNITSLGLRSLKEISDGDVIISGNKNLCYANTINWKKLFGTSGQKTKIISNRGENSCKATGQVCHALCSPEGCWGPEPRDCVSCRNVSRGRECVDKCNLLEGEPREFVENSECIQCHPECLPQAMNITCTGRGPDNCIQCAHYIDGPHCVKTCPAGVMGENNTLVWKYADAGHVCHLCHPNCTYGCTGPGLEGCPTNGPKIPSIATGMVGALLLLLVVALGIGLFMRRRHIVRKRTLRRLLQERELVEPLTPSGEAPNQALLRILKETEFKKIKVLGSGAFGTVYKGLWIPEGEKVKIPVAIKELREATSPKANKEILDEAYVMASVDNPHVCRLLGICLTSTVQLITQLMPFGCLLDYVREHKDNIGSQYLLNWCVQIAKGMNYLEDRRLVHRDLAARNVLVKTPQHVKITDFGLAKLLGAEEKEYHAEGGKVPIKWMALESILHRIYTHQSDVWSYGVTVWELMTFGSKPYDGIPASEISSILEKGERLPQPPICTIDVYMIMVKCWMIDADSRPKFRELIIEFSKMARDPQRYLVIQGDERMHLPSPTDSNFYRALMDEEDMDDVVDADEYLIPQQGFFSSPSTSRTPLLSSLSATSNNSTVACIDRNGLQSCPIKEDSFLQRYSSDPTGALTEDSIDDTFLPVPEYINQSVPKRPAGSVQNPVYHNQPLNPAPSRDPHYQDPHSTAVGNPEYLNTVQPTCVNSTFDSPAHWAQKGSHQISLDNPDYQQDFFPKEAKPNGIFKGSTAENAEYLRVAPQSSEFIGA
Test: Inhibition of polyGAT phosphorylation
assayReadout: IC50

{"columns": ["smilesText", "assayReadout", "recordedResult"],
 "data": [
  ["N#CC(C#N)=Cc1ccco1", "IC50", "> 1250 µM"],
  ["CC(=O)Nc1ccc(C=C(C#N)C#N)cc1", "IC50", "> 325 µM"],
  ["N#CC(C#N)=Cc1ccc(S(=O)(=O)O)o1", "IC50", "> 250 µM"],
  ["N#CC(C#N)=Cc1ccc2c(c1)CCN2Cc1ccccc1", "IC50", "> 2500 µM"]
]}

###

Parameter IC50, tested on Receptor tyrosine-protein kinase erbB-2 (Homo sapiens, UniProt P04626), listed per item.
Sequence (P04626 whole entry): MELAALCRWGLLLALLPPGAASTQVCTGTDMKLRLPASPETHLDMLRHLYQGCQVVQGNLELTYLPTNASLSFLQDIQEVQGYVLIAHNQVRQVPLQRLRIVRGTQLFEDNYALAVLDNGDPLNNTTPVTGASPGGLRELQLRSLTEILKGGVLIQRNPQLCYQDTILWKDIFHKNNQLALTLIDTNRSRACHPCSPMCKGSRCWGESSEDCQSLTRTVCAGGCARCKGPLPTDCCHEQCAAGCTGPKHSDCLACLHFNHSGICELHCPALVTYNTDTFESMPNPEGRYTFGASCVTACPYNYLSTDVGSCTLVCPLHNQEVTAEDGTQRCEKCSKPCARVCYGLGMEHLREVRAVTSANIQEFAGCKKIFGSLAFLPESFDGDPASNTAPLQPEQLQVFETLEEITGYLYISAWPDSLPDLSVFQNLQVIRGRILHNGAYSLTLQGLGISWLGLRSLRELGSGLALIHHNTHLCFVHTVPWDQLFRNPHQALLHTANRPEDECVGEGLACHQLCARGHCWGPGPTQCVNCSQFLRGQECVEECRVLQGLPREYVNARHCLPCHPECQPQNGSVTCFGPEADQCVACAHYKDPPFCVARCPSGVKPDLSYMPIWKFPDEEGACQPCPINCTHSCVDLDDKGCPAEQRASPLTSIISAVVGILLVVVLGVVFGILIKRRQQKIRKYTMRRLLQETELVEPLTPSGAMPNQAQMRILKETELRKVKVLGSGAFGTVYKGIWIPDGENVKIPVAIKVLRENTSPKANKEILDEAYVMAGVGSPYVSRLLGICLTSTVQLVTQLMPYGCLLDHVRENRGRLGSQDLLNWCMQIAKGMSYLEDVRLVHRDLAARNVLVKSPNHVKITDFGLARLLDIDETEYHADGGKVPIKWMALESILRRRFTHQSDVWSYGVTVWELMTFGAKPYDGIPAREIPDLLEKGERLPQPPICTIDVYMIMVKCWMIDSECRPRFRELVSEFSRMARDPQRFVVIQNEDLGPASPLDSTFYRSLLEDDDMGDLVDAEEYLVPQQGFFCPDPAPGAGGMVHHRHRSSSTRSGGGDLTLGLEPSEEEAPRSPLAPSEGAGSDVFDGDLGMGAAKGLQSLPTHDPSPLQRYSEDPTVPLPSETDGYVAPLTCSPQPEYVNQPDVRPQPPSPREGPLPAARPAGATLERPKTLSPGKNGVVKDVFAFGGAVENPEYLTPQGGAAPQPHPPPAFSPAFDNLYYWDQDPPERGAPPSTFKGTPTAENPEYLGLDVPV
assayReadout: IC50

{"columns": ["compound", "experimentalSystem", "recordedResult"],
 "data": [
  ["N#C/C(=C\\c1ccc(O)c(O)c1)C(=O)NCCCCc1ccccc1", "Receptor tyrosine-protein kinase erbB-2 (Homo sapiens, UniProt P04626)", "> 500 µM"],
  ["CCOC(=O)C(Cc1ccccc1)NC(=O)/C(C#N)=C/c1ccc(O)c(O)c1 (stereo not drawn)", "Receptor tyrosine-protein kinase erbB-2 (Homo sapiens, UniProt P04626)", "> 333 µM"],
  ["COc1ccc(NC(=O)/C(C#N)=C/c2ccc(O)c(O)c2)c(OC)c1", "Receptor tyrosine-protein kinase erbB-2 (Homo sapiens, UniProt P04626)", "> 166 µM"]
]}

Cited source for all entries: ChEMBL document CHEMBL1125266
